Assay: Cytostatic assay
Type: cell-based
Conditions: human, Huh 5-2 cells
reported_endpoint: viability at 3 days (%)
Respond with the bare value in %.

(Q) Supply measured viability at 3 days of OC[C@H]1O[C@@H]2O[C@H]3[C@H](O)[C@@H](O)[C@@H](O[C@H]4[C@H](O)[C@@H](O)[C@@H](O[C@H]5[C@H](O)[C@@H](O)[C@@H](O[C@H]6[C@H](O)[C@@H](O)[C@@H](O[C@H]7[C@H](O)[C@@H](O)[C@@H](O[C@H]8[C@H](O)[C@@H](O)[C@@H](O[C@H]9[C@H](O)[C@@H](O)[C@@H](O[C@H]1[C@H](O)[C@H]2O)O[C@@H]9CO)O[C@@H]8CO)O[C@@H]7CO)O[C@@H]6CO)O[C@@H]5CO)O[C@@H]4CO)O[C@@H]3CO in your reply.
(A) 100
